Test system: mutant Mortierella alpina SAM 1860
Test: Culturing of mutant Mortierella alpina SAM 1860 in medium with added substrate (Example 3), fatty acid methyl esters analysed by gas chromatography
Type: cell-based
Conditions: 0.5% additive in medium with 2% glucose, 1% yeast extract, 0.2% Tween 20; 28° C., 7 days
parameter: Dry cells (g/L)
Give bare numbers, in g/L.

// below: answered molecules
CCCCCCCC/C=C\CCCCCCCC(=O)OC [Methyl oleate]    18.1
CCCCCCCCCCCCCCCCCC [Octadecane]    18.3

Quick batch: Dry cells for everything below.
1. CCCCC/C=C\C/C=C\CCCCCCCC(=O)OC [Methyl linoleate]
2. CCCCCCCCCCCCCCCC [Hexadecane]
3. CCCCCCCC/C=C\CCCCCCCC(=O)[O-].[Na+] [Sodium oleate]
4. CCCCC/C=C\C/C=C\CCCCCCCC(=O)[O-].[Na+] [Sodium linoleate]

18.7
18.1
15.5
14.8
